Experiment: Protein binding in human plasma assessed as compound recovery at 5 uM incubated for 18 hrs by LC-MS/MS analysis
Type: ADME, cell-free
Details: read-out: Drug recovery
parameter: recovery at 18 h, 5 µM (%)

- compound: "CCc1cc(N2C(=S)N(c3ccc(C#N)c(C(F)(F)F)c3)C(=O)C2(C)C)ccc1OCCN1CCN(CC(=O)Nc2cccc(NC3CCC(=O)NC3=O)c2)[C@H](C)C1 (some centres undefined)"
  recovery at 18 h, 5 µM / %: 82
- compound: "O=C1CC[C@H](N2Cc3cc(N4CCN(CC5CCN(c6ccc([C@@H]7c8ccc(O)cc8CC[C@@H]7c7ccccc7)cc6)CC5)CC4)ccc3C2=O)C(=O)N1 [VEPDEGESTRANT]"
  recovery at 18 h, 5 µM / %: 77
- compound: "Cn1c(=O)n([C@H]2CCC(=O)NC2=O)c2cccc(C#CCOC3CCN(C[C@H]4CC[C@H](n5cc(NC(=O)c6cnn7ccc(N8C[C@H]9C[C@@H]8CO9)nc67)c(C(F)F)n5)CC4)CC3)c21"
  recovery at 18 h, 5 µM / %: 56
- compound: "COc1cc(O[C@H]2C(C)(C)[C@H](NC(=O)c3ccc(N4CCC(CN5CCN(c6ccc(C(=O)N[C@H]7CCC(=O)NC7=O)c(F)c6)CC5)CC4)cc3)C2(C)C)ccc1C#N [LUXDEGALUTAMIDE]"
  recovery at 18 h, 5 µM / %: 68
